Measurement description: qHTS assay for identifying genotoxic compounds that show differential cytotoxicity against isogenic chicken DT40 cell lines with known DNA damage response pathways - Rad54/Ku70 mutant cell line (AID 743015); note: nearly all actives have a fitted effect of over 60% in size; note: potency is the fitted concentration of half-maximal effect
Experimental setup: DT40 Rad54/Ku70 mutant viability, CellTiter-Glo, 40 h; series mostly up to 66.8 µM
Inconclusive results are not listed. Active and inactive are the calls of the source. Calls come from the whole dose curve; as a rule, active = well fitted cell-killing curve with a large enough effect in the repeat runs; inconclusive = weak or mixed curves; inactive = no such curve, though single readings can be large or run the other way.
Measured attribute: Potency

Use these answered entries as a reference point.
Smiles record	Potency
CCCCC/C=C\C=C\C(=O)OCC	12.7 µM (active)
C[C@H](Cc1ccc(O)c(O)c1)[C@@H](C)Cc1ccc(O)c(O)c1	10.6 µM (active)
CC1(C)C[C@@H]1C(=O)N/C(=C\CCCCSC[C@H](N)C(=O)O)C(=O)O	inactive
CCN(CC)C(=O)[C@]1(c2ccccc2)C[C@@H]1CN	inactive
CC(=O)Oc1cc(C(F)(F)F)ccc1C(=O)O	inactive
O=C1C2CC3CC1CC(O)(C3)C2	inactive

Exercise: Indicate its recorded Potency; the compound in question is `NCCCC[C@H](NC(=O)[C@@H]1CCCN1C(=O)[C@@H]1CSSC[C@H](N)C(=O)N[C@@H](Cc2ccc(O)cc2)C(=O)N[C@@H](Cc2ccccc2)C(=O)N[C@@H](CCC(N)=O)C(=O)N[C@@H](CC(N)=O)C(=O)N1)C(=O)NCC(N)=O`
Key: inactive

Exercise: Query Potency for `COc1cccc2c1[C@@H]1CN(CCCCn3c(=O)[nH]c4c(sc5ncc(-c6ccccc6)nc54)c3=O)C[C@@H]1CO2`
Key: 11.9 µM (active)

Exercise: Could you please provide reported Potency for `N=C(N)n1cccn1` ? Thanks!
Key: inactive

Exercise: Output Potency of `CCCCCCCCCC(=O)NO`
Key: inactive

Numbers sourced from PubChem BioAssay (Tox21).
